Test system: oilseed rape (Brassica napus)
Experiment: Test C greenhouse herbicide test, pre- and postemergence
Format: in vivo
Assay setup: Postemergence, 31 g ai/ha; scale 0 to 100 (0 no effect, 100 complete control)
Observable: Plant response rating, Oilseed Rape

Molecule: CCCC(=O)Oc1c(C)nn(C)c(=O)c1-c1c(C)sc2c(C)cc(C)cc12 [Compound 106]
Endpoint value: 60

Molecule: CC(=O)Oc1c(C)nn(C)c(=O)c1-c1c(C)cc(C)c2ccccc12 [Compound 153]
Endpoint value: 90

Molecule: Cc1nn(C)c(=O)c(-c2cc(F)cc3ccccc23)c1OS(C)(=O)=O [Compound 115]
Endpoint value: 0

Molecule: Cc1ccc2ccccc2c1-c1c(O)c(Cl)nn(C)c1=O [Compound 125]
Endpoint value: 0

Molecule: CCC(=O)Oc1c(C)nn(C)c(=O)c1-c1ccc(Br)c2ccccc12 [Compound 133]
Endpoint value: 95
